target: AMPK alpha2/beta1/gamma1 (Homo sapiens) (UniProt P54646+P54619+Q9Y478); assay: Agonist activity at human recombinant phosphorylated AMPK complex 7 alpha2/beta1/gamma1 expressed in baculovirus infected Sf21 cells assessed as phosphorylation of 5-FAM-labeled SAMS substrate at 50 uM preincubated for 30 mins in presence of AMPK activator followed by substrate addition measured after 60 mins relative to AMP
Sequence (P54619 whole entry partner): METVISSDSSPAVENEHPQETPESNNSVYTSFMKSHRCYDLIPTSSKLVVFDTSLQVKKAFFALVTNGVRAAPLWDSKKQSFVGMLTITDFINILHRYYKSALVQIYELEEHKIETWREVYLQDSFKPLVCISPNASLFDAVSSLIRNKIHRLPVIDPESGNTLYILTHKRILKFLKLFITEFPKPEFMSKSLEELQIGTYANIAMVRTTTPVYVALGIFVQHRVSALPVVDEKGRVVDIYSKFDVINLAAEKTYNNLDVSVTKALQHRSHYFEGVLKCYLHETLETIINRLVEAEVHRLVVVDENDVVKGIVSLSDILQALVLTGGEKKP
Sequence (P54646 whole entry): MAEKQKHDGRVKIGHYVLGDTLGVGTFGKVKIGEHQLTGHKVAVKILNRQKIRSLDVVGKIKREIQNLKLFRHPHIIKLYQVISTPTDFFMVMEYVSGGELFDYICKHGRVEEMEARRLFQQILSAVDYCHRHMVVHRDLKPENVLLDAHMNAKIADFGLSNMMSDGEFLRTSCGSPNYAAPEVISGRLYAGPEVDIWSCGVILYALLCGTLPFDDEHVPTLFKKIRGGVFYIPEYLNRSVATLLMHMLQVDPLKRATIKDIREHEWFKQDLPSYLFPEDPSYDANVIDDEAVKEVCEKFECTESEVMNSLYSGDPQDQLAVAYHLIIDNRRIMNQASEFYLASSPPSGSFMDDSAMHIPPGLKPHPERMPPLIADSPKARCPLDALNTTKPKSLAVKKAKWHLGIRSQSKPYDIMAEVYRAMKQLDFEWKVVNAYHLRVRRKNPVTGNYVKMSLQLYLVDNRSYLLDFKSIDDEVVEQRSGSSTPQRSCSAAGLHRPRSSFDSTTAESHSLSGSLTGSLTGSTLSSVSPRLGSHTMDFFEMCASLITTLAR
Sequence (Q9Y478 2-270 partner limits assumed): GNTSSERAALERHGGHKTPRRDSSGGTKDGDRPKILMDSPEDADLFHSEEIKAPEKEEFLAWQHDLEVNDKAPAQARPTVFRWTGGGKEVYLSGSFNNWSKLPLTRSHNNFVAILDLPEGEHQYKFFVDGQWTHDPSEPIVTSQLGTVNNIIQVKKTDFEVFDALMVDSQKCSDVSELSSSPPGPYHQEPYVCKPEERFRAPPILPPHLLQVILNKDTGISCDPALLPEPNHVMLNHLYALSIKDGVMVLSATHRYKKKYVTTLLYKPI
recorded_endpoint: %max
Output should be the measured figure followed by the unit it is expressed in.

In [3]: df
Out[3]:
                              smiles_record  result
0              O=C(O)CCc1nc2cc(Cl)ccc2[nH]1     41%
1  O=C(O)c1cccc(Sc2nc3cc(Cl)c(Cl)cc3[nH]2)c1    150%
2  O=C(O)CCc1nc2cc(Cl)c(-c3ccc(-c4ccccc4)cc3)cc2[nH]1    130%
3              COc1ccc2[nH]c(CCC(=O)O)nc2c1     14%
4  O=C(O)Cc1cccc(Sc2nc3cc(Cl)c(Cl)cc3[nH]2)c1    140%

(Q) Enter measured %max, system AMPK alpha2/beta1/gamma1 (Homo sapiens) (UniProt P54646+P54619+Q9Y478), for the compound shown: O=C(O)c1csc(Sc2nc3cc(Cl)c(Cl)cc3[nH]2)n1
(A) 76%

----------
assay: Volume of distribution at steady state in C57BL/6 mouse at 2 mg/kg, iv or 10 mg/kg administered through oral gavage by LC-MS/MS analysis; assay type: ADME, organism-based; settings: in vivo, read-out: Vdss
recorded_endpoint: Vd
Output should be the measured figure followed by the unit it is expressed in.

(Q) Please supply the value of reported Vd for the item Cc1ccc(Oc2nc3cc(-c4ccc(-c5ccccc5)cc4)c(Cl)cc3[nH]2)cc1C(=O)O
(A) 0.7 L/kg

Entry source: ChEMBL document CHEMBL4024751
